test.name: protein stability index of a GFP-peptide fusion (yeast GPS) (PSI 1-4); higher = more stable; sorted into four equal gates, so the index is relative within each strain
stated.conditions: san1∆

>  <sequence>
YLHQNWVLHRDLKPANI [SSN3]

>  <protein stability index>
2.72

$$$$
>  <sequence>
LRIVKPTVSLTINLDRF [RPC82]

>  <protein stability index>
2.46

$$$$
>  <sequence>
ECSKDMKEDGLSFVDIV [SIR4]

>  <protein stability index>
3.1

$$$$
>  <sequence>
GWYHSHPGFGCWLSSVD [RPN11]

>  <protein stability index>
2.35

$$$$
>  <sequence>
DESDSENDIEIKGPEFK [YLR335W/NUP2]

>  <protein stability index>
3.03

$$$$
>  <sequence>
REIQIDAVLKIFSFHQD [SRB8]

>  <protein stability index>
3.06

$$$$
>  <sequence>
AQAQAQAQAQVYAQQST [PGD1]

>  <protein stability index>
2.97

$$$$
>  <sequence>
SLLLKNYLNDMHDSNLQ [SKP1]

>  <protein stability index>
1.81

$$$$
>  <sequence>
DSVAAIGIPVNKASLAQ [QCR2]

>  <protein stability index>
2.52

$$$$
>  <sequence>
IQVFEKPFLKKTQEYYT [CDC53]

>  <protein stability index>
2.57

$$$$
>  <sequence>
IVAKYDPPIIIFINYKQ [PRP28]

>  <protein stability index>
1.98

$$$$
>  <sequence>
TFTIQLLKLTKVFIRES [YML103C/NUP188]

>  <protein stability index>
2.46

$$$$
>  <sequence>
TTQGGLTSVTRHGFNRS [RPO21]

>  <protein stability index>
3.15

$$$$
>  <sequence>
VHDKILEDLVFPTEIVG [RPS7A]

>  <protein stability index>
3.27

$$$$
>  <sequence>
EDEFIVQHDQILVMETS [SWP82]

>  <protein stability index>
2.33

$$$$
>  <sequence>
QDRIQDVKLVLASNFDN [MED1]

>  <protein stability index>
1.88

$$$$
>  <sequence>
KPPTQKTDTKVSFRTHN [SRP21]

>  <protein stability index>
2.57

$$$$
>  <sequence>
ETQEIKENDTVMNTKLL [ESC2]

>  <protein stability index>
2.88

$$$$
>  <sequence>
DQWLEEYKKHFPPNLEK [UBP6]

>  <protein stability index>
2.88

$$$$
>  <sequence>
PILVTLVSDSEIIDLNL [POP6]

>  <protein stability index>
2.36

$$$$
>  <sequence>
HTSSSDGNNEIFTCQIM [RPN4]

>  <protein stability index>
3.08

$$$$
>  <sequence>
NENSNCLLSIPKSTKGK [YML103C/NUP188]

>  <protein stability index>
2.61

$$$$
>  <sequence>
ASDGGLYVPHSENRFPG [RPL5]

>  <protein stability index>
2.93

$$$$
>  <sequence>
ALQNLSQLPITPMTRIS [YGL172W/NUP49]

>  <protein stability index>
1.66

$$$$
>  <sequence>
DSQIVTPGELVTDDPIW [RRP4]

>  <protein stability index>
2.76

$$$$
>  <sequence>
IIELPNEKFEIELLSLD [SRB4]

>  <protein stability index>
2.84

$$$$
>  <sequence>
ISWCSLSETNGLHKFVK [PRE10]

>  <protein stability index>
2.82

$$$$
>  <sequence>
YTEFIDSFIEKIIPKDI [ITC1]

>  <protein stability index>
1.76

$$$$
>  <sequence>
KFKHIDDKYGRKFALEK [SRP72]

>  <protein stability index>
3.17

$$$$
>  <sequence>
KVKHDSQPFIKFLNFRP [SSN2]

>  <protein stability index>
2.49

$$$$
>  <sequence>
IGSQRGRRLSMLASQAN [DSN1]

>  <protein stability index>
1.88

$$$$
>  <sequence>
AGKQLEDGRTLSDYNIQ [RPS31]

>  <protein stability index>
3.6

$$$$
>  <sequence>
CLQDALDAIDDFIQLKQ [SSN2]

>  <protein stability index>
2.2

$$$$
>  <sequence>
LFEQLQTVSNKEDAKAT [SRP54]

>  <protein stability index>
3.18

$$$$
>  <sequence>
NYKGLPKKYKENNTDSA [SMC1]

>  <protein stability index>
3.28

$$$$
>  <sequence>
LVELMFIRSTNSWFDVT [FAS1]

>  <protein stability index>
1.72

$$$$
>  <sequence>
TPSFSFGAKSDENKAGA [YJL041W/NSP1]

>  <protein stability index>
3.17

$$$$
>  <sequence>
IDLCHDFPHLTPKLQTQ [YCS4]

>  <protein stability index>
2.63

$$$$
>  <sequence>
HTATDIYQTLIALNLDT [SNF2]

>  <protein stability index>
1.88

$$$$
>  <sequence>
DIYFKLKKLEKEYELLT [RPT3]

>  <protein stability index>
2.29

$$$$
>  <sequence>
ESKQDGLSILFLTGQFA [YML103C/NUP188]

>  <protein stability index>
2.88

$$$$
>  <sequence>
VEDALDKDSTKEVASLP [FAS2]

>  <protein stability index>
3.12

$$$$
>  <sequence>
EIFIRCNNVLYIRELPN [SMX3]

>  <protein stability index>
1.53

$$$$
>  <sequence>
NNMLYPREDKENNRLLF [RPB9]

>  <protein stability index>
2.78

$$$$
>  <sequence>
EINSEDYDNKTKLIGVL [SRP68]

>  <protein stability index>
3.25

$$$$
>  <sequence>
SQLAQVAAFVNNYPNVE [BRR2]

>  <protein stability index>
2.68

$$$$
>  <sequence>
SKEQIHGSIIILGMLSL [YCS4]

>  <protein stability index>
2.72

$$$$
>  <sequence>
TVKLYLPEILNVLCVNI [ECM29]

>  <protein stability index>
1.5

$$$$
>  <sequence>
EAESLLQFHVATYMDND [RPO21]

>  <protein stability index>
2.7

$$$$
>  <sequence>
KVLGVKDMSPILGELKR [LRP1]

>  <protein stability index>
2.88

$$$$
>  <sequence>
ENANAANNGAAFSPLTT [MED2]

>  <protein stability index>
2.88

$$$$
>  <sequence>
KSKFNKSNRSYSIALSN [GAL11]

>  <protein stability index>
3.1

$$$$
>  <sequence>
NIDTITDAMTESQPKQT [MCD1]

>  <protein stability index>
3

$$$$
>  <sequence>
DNLLLNLEQINEDLEDG [REC8]

>  <protein stability index>
2.71

$$$$
>  <sequence>
SRGGVTQVRVEFLEDTS [RPS28A]

>  <protein stability index>
3.16

$$$$
>  <sequence>
SILRKSSPEEPFMSYSP [SNF12]

>  <protein stability index>
2.55

$$$$
>  <sequence>
VAIQQGDIKPEFSPRLH [YML103C/NUP188]

>  <protein stability index>
3.07

$$$$
>  <sequence>
SAINQYNRRQDKKNKRL [SNF2]

>  <protein stability index>
3.23

$$$$
>  <sequence>
RRGYQVYREVCAACHSL [CYT1]

>  <protein stability index>
1.47

$$$$
>  <sequence>
DINVELFPVAAQDSLTV [RPB8]

>  <protein stability index>
1.16

$$$$

* * *

Items are presented alongside their recorded protein stability index.
test.name: protein stability index of a GFP-peptide fusion (yeast GPS) (PSI 1-4); higher = more stable; sorted into four equal gates, so the index is relative within each strain
stated.conditions: ubr1∆

>  <sequence>
EILEKCAEGIFVVKLDT [GAL11]

>  <protein stability index>
3.72

$$$$
>  <sequence>
CGHRILLKARTKRLVQF [RPC10]

>  <protein stability index>
1.22

$$$$
>  <sequence>
LEDQQRQQKLLLETKLR [SWI1]

>  <protein stability index>
2.31

$$$$
>  <sequence>
LIIKYQKYWESMRIQIL [GAL11]

>  <protein stability index>
1.65

$$$$
>  <sequence>
PEESKGSFKYITARSAF [SWP82]

>  <protein stability index>
3.15

$$$$
>  <sequence>
IHVLEQDGGIMGSLING [SKI6]

>  <protein stability index>
3.18

$$$$
>  <sequence>
TSFDRTKKTITPMGGFV [RPL3]

>  <protein stability index>
3.21

$$$$
>  <sequence>
ALASIQTFNFDSFENYF [RPN12]

>  <protein stability index>
2.82

$$$$
>  <sequence>
PSADGADKKDDSESNSE [ITC1]

>  <protein stability index>
2.96

$$$$
>  <sequence>
GFSPTSPTYSPTSPAYS [RPO21]

>  <protein stability index>
2.39

$$$$
>  <sequence>
LRIVKPTVSLTINLDRF [RPC82]

>  <protein stability index>
2.43

$$$$
>  <sequence>
PQYNMNMGMNNMNNGGK [PGD1]

>  <protein stability index>
3.24

$$$$
>  <sequence>
PKSTAPIFSFGKQEENG [YOR098C/NUP1]

>  <protein stability index>
2.38

$$$$
>  <sequence>
DGIHYILNHIGQLTGIY [PRP8]

>  <protein stability index>
1.67

$$$$
>  <sequence>
TEQFCATLNYIDKNHGF [SRB7]

>  <protein stability index>
2.47

$$$$
>  <sequence>
NSIYCPTQTVAELDLMS [RPN6]

>  <protein stability index>
1.53

$$$$
>  <sequence>
KLSNIWMQRQLIKGDAG [SRB2]

>  <protein stability index>
1.25

$$$$
>  <sequence>
VDSRTKIRMLTQAAEFL [IRR1]

>  <protein stability index>
2.81

$$$$
>  <sequence>
NNDKREIQEELERFNKR [SMC1]

>  <protein stability index>
3.27

$$$$
>  <sequence>
SIVGVDLSSAASASGAA [FAS2]

>  <protein stability index>
1.62

$$$$
>  <sequence>
TGNIKHEDLVNSIESKN [COR1]

>  <protein stability index>
2.96

$$$$
>  <sequence>
SKRLPLRFPEHTSSGSV [BRR2]

>  <protein stability index>
2.34

$$$$
>  <sequence>
NIKSSISNGNLATGPNL [YOR098C/NUP1]

>  <protein stability index>
2.89

$$$$
>  <sequence>
IAKATKEFKGIKVTVQL [RPL12A]

>  <protein stability index>
3.35

$$$$
>  <sequence>
GRTGRAANEGTAVSFVS [PRP28]

>  <protein stability index>
2.7

$$$$
>  <sequence>
HKYVLTLQLYMVHREFL [RGR1]

>  <protein stability index>
2.1

$$$$
>  <sequence>
RTIANQDHFHRLNYLYQ [RPR2]

>  <protein stability index>
2.58

$$$$
>  <sequence>
ADKPFTRLTAYQELAYR [YML031W/NDC1]

>  <protein stability index>
3

$$$$
>  <sequence>
ISSSAIPYSRNAPAWFK [RPS13]

>  <protein stability index>
2.37

$$$$
>  <sequence>
ESDLYKLKECPFDMGGY [RPB2]

>  <protein stability index>
3.34

$$$$
